Reference source for all entries: patent US11180770B2

Test system: HPPD polypeptides
Protocol text: coupled HPPD activity assay: turnover and residual turnover in crude extracts
Type: biochemical, Pseudomonas fluorescens
Assay setup: presence of 100 μM Cmpd. 1; high substrate concentration; changes in absorbance (OD) at 320 nm
# maps each entry to its Residual turnover

Molecule	Residual turnover
SEQ ID NO:2 (protein, mutant HPPD polypeptide) MADLYENPMGLMGFEFIEFASPTPGTLEPIFEIMGFTKVATHRSKNVHLYRQGEINLILNNEPNSIASYFAAEHGPSVCGMAFRVKDSQKAYNRALELGAQPIHIDTGPMELNLPAIKGIGGAPLYLIDRFGEGSSIYDIDFVYLEGVERNPVGAGLKVIDHLTHNVYRGRMVYWANFYEKLFNFREARYFDIKGEYTGLTSKAMSAPDGMIRIPLNEESSKGAGQIEEFLMQFNGEGIQHVAFLTDDLVKTWDALKKIGMRFMTAPPDTYYEMLEGRLPDHGEPVDQLQARGILLDGSSVEGDKRLLLQIFSETLMGPVFFEFIQRKGDDGFGPWNFAQLFESIERDQVRRGVLTAD	0.026
49 (protein, mutant HPPD polypeptide) MADLYENPMGLMGFEFIEFASPTPGTLEPIFEIMGFTKVATHRSKNVHLYRQGEINLILNNEPNSIASYFAAEHGPSVCGMAFRVKDSQKAYNRALELGAQPIHIDTGPMELNLPAIKGIGGAPLYLIDRFGEGSSIYDIDFVYLEGVERNPVGAGLKVIDHLTHNVYRGRMVYWANFYEKLFNFREARYFDIKGEYTGLTSKAMSAPDGMIRIPLNEESSKGAGQIEEFLMQFNGEGIQHVAFLTDDLVKTWDALKKIGMRFMTAPPDNYYEMLEGRLPDHGEPVDQLQARGILLDGSSVEGDKRLLLQIFSETLMGPVFFEFIQRKGDDGFGPHSFKVLFEQMERDQVRRGVLTAD	0.103
